Literature-derived IC50 for IRAK4 (Homo sapiens (Human), UniProt Q9NWZ3) follows.
Write the number in nM without appending the unit.

Query :: Provide IC50 value for the following compound: CC(C)Nc1cc(Nc2ccc3ncsc3c2)ncc1C(=O)NC1CCC2(CC1)NC(=O)NC2=O (stereo not drawn)
Result :: 1.5

Query :: Provide IC50 value for the following compound: O=C1CCC(N2Cc3c(NCCOCCOCCC(=O)N4CCC(c5cc(NC(=O)c6cccc(-c7ccn[nH]7)n6)n(-c6ccccn6)n5)CC4)cccc3C2=O)C(=O)N1 (stereo not drawn)
Result :: 18

Query :: Provide IC50 value for the following compound: N#CC1CCC(c2ccc3ncnc(N[C@H]4CC[C@H](N5CCOCC5)CC4)c3c2)CC1 (stereo partly drawn)
Result :: 169

Query :: Provide IC50 value for the following compound: CC(C)(F)[C@H](F)CNC(=O)c1cnc(-c2cnc3cc(Cl)cnn23)cc1Nc1cnn(CC(F)F)c1
Result :: 2

Query :: Provide IC50 value for the following compound: CC(C)Nc1cc(-n2ncc3cc(C#N)cnc32)ncc1-n1cc(C2CCNCC2)nn1
Result :: 2

Query :: Provide IC50 value for the following compound: Nc1cc(-c2ccc3ncnc(N[C@H]4CC[C@H](N5CCC(F)(F)CC5)CC4)c3c2)cnc1F
Result :: 2

Query :: Provide IC50 value for the following compound: N#Cc1ccc(-n2cnc3cc(OCCOCCO)c(NC4CCOCC4)nc32)nc1
Result :: 6.35

Query :: Provide IC50 value for the following compound: CC(=O)N1CCC(N2CC(n3cc(NC(=O)c4cccc(-c5cnn(C6(CN)CCC6)c5)n4)c(C(F)F)n3)C2)CC1
Result :: 1.6

Query :: Provide IC50 value for the following compound: C=CC(=O)N1CCC[C@H](C(=O)Nc2ccc(-c3ncc(-c4cccc(-c5ccn[nH]5)n4)[nH]3)nc2)C1
Result :: 474

Query :: Provide IC50 value for the following compound: CNc1cc(-c2ccc3cc(C#N)cnn23)ncc1-c1cn([C@H]2CC[C@H](NC(=O)OC(C)(C)C)CC2)nn1
Result :: 16
